- experimentalTarget: T1, PUF4 RNA-binding domain (Saccharomyces cerevisiae, UniProt P25339 537-888)
- T1 sequence: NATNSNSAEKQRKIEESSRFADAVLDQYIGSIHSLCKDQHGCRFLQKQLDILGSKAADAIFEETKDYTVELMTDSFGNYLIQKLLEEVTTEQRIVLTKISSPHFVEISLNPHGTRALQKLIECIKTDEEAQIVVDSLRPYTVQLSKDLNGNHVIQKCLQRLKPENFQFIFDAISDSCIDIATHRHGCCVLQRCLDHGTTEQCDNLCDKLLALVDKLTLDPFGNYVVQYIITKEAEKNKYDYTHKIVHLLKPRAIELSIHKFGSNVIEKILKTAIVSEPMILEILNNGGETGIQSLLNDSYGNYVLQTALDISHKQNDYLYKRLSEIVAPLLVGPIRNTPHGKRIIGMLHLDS
- procedureText: Mg; RNA-MaP; 20 mM Na-HEPES pH 7.4, 30 mM KOAc, 0.75 mM MgCl2, 0.1% Tween-20, 5% glycerol, 0.1 mg/mL BSA, 2 mM DTT; 25 C; 0.0125-409.6 nM protein
- testConditions: tags: N-His6-TEV cleaved; C-SNAP kept, Cy3B-labelled; label: tethered on chip by stalled RNA polymerase
Could you please report measured pKd for the items listed next?
Give bare numbers, as −log10 of the molar value.

Worked set:
>  <binder>
Ic_S2_P4E.1_K4.1_C4.1_H4.1_A4.1_[T5G]_[A6C]_[T7A]_F4.1_[T8C]_T4.1 (ssRNA) RNA: UUUGAUUAAUAUGAUAUCGUUCUUUCUUGUAGCACAUUCUUUCUCGAUAUCAUAUUAAUCUUU

>  <measuredNumber>
6.08

$$$$
>  <binder>
UCUCUUUGUUUGAUUAUCUCUU (ssRNA) [Ib_S1_P5E.1_K5.1_C5.1_H5.1_[A4T]_A5.1_[T6G]_F5.1_T5.1]

>  <measuredNumber>
6.91

$$$$
>  <binder>
Id_ii_S2_P5E.2_K5.1_C5.2_[C-2A]_[T-1G]_H5.1_A5.1_F5.1_T5.2_[T11A]_[A12T] (ssRNA) RNA: UUUGAUUAAUAUGAUAUCGUUCUUUCUAGUGUAUUAUUAAUUUCUUUCUCGAUAUCAUAUUAAUCUUU

>  <measuredNumber>
8.13

$$$$
>  <binder>
Ie_S2_P4E.1_K4.1_C4.1_H4.1_[+2TC]_A4.1_F4.1_T4.1 (ssRNA) RNA: UUUGAUUAAUAUGAUAUCGUUCUUUCUUGUCUAUAUUAUUCUUUCUCGAUAUCAUAUUAAUCUUU

>  <measuredNumber>
7.56

$$$$

Fill in pKd for each of the 3 binders listed.
1. UCUCUUUGUAUUAUUGUCUCUU (ssRNA) [Ia_S1_P5E.1_K5.1_C5.1_H5.1_A5.1_F5.1_[A10G]_T5.1]
2. UCUCUUAGUGUAUUAUCUCUU (ssRNA) [Ib_S1_P4E.1_K4.1_C4.1_H4.1_[T1A]_[A4G]_A4.1_F4.1_T4.1]
3. UCUCUUCCUAUAUAUAUAUCUCUU (ssRNA) [Id_ii_S1_P3E.3_K3.2_C3.2_[T-1C]_H3.2_A3.1_F3.1_T3.2]

1. 7.83
2. 7.19
3. 6.24
